Test system: normal primary NK cells, pool 2 (3 donors) (IL-2 2.5 ng/mL)
Assay: percent inhibition of viability; higher = more inhibition;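 note: normalised to DMSO-only wells as negative and benzethonium chloride as positive control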
Settings: 72 h; 10 nM
Listing of recorded percent inhibition of viability by entry.
Numbers only here, please. The scale is %.

Worked set:
1. CC[C@H](NC(=O)[C@H](C)NC)C(=O)N1C[C@@H](O)C[C@H]1Cc1c(-c2[nH]c3cc(F)ccc3c2C[C@@H]2C[C@H](O)CN2C(=O)[C@H](CC)NC(=O)[C@H](C)NC)[nH]c2cc(F)ccc12 [Birinapant] (max concentration tested 1000 nM) :: -11.2
2. Cc1ccccc1C(C(=O)NC1CCCCC1)N(C(=O)Cn1ccnc1C)c1cccc(F)c1 (centres undefined) [AGI-5198] (max concentration tested 10000 nM) :: -0.73
3. CO[C@H]1C[C@@H]2CC[C@@H](C)[C@@](O)(O2)C(=O)C(=O)N2CCCC[C@H]2C(=O)O[C@H]([C@H](C)C[C@@H]2CC[C@@H](OP(C)(C)=O)[C@H](OC)C2)CC(=O)[C@H](C)/C=C(\C)[C@@H](O)[C@@H](OC)C(=O)[C@H](C)C[C@H](C)/C=C/C=C/C=C/1C [Ridaforolimus] (max concentration tested 100 nM) :: 16.1
4. COc1cc2c(NC3CCN(C(C)C)CC3)nc(N3CCC(F)(F)CC3)nc2cc1OCCCN1CCCC1 [UNC0642] (max concentration tested 10000 nM) :: 6.45
5. Cc1cc(C)c(/C=C2\C(=O)Nc3ccccc32)[nH]1 [Semaxanib] (max concentration tested 10000 nM) :: -5
6. O=C(Cc1ccc(-c2ccc(OCCN3CCOCC3)cc2)cn1)NCc1ccccc1 [KX2-391] (max concentration tested 10000 nM) :: -11.1
7. Nc1nc(N)c2nc(-c3cccc(O)c3)c(-c3cccc(O)c3)nc2n1 [TG100-115] (max concentration tested 10000 nM) :: -4.42
8. CN1CCC(COc2cnc(-c3cccc(Cn4nc(-c5cccc(C#N)c5)ccc4=O)c3)nc2)CC1 (max concentration tested 1000 nM) :: -9.87

input: Quick one: percent inhibition of viability of CNC(=O)c1ccc(N2C(=S)N(c3ccc(C#N)c(C(F)(F)F)c3)C(=O)C23CCC3)cc1F [RD162] (max concentration tested 10000 nM) ?
output: -1.28

input: Same question for CN(C)C1CCN(C(=O)c2ccc(NC(=O)Nc3ccc(-c4nc(N5CCOCC5)nc(N5CCOCC5)n4)cc3)cc2)CC1 [Gedatolisib] (max concentration tested 1000 nM) please.
output: -0.9

input: Same question for CS(=O)(=O)OCCCCOS(C)(=O)=O [Busulfan] (max concentration tested 100000 nM) please.
output: -6.89

input: Same question for Nc1ccccc1NC(=O)c1ccc(CNC(=O)OCc2cccnc2)cc1 [Entinostat] (max concentration tested 10000 nM) please.
output: -3.08

input: Same question for C=CC(=O)N1CCC[C@@H](n2nc(-c3ccc(Oc4ccccc4)cc3)c3c(N)ncnc32)C1 [Ibrutinib] (max concentration tested 1000 nM) please.
output: 7.05

input: Same question for c1ccc2c(CCNc3ccc(Nc4ccncc4)cc3)c[nH]c2c1 [Serdemetan] (max concentration tested 10000 nM) please.
output: -4.95

input: Same question for C#Cc1cccc(Nc2ncnc3cc(OC)c(OCCCCCCC(=O)NO)cc23)c1 [CUDC-101] (max concentration tested 10000 nM) please.
output: -5.49

input: Same question for COc1cc(N2CCC(N3CCN(C)CC3)CC2)ccc1Nc1ncnc(Nc2ccccc2S(=O)(=O)C(C)C)n1 [ASP3026] (max concentration tested 10000 nM) please.
output: -7.52

input: Same question for CNC(=O)c1ccc(N2C(=S)N(c3cnc(C#N)c(C(F)(F)F)c3)C(=O)C23CCC3)cc1F [ARN 509] (max concentration tested 10000 nM) please.
output: -8.75

====

Tested on: IMC-1 (IL-2 20 ng/mL)
Experiment: percent inhibition of viability; higher = more inhibition
Settings: 72 h; 1000 nM
Listing of recorded percent inhibition of viability by entry.
Numbers only here, please. The scale is %.

Worked set:
1. COc1ccc(C2=N[C@@H](c3ccc(Cl)cc3)[C@@H](c3ccc(Cl)cc3)N2C(=O)N2CCNC(=O)C2)c(OC(C)C)c1 [Nutlin-3] (max concentration tested 10000 nM) :: -1.01
2. COc1cc2nccc(Oc3ccc(NC(=O)Nc4cc(C)on4)c(Cl)c3)c2cc1OC [Tivozanib] (max concentration tested 10000 nM) :: 4.81
3. Cc1ccccc1C(C(=O)NC1CCCCC1)N(C(=O)Cn1ccnc1C)c1cccc(F)c1 (stereo unspecified) [AGI-5198] (max concentration tested 10000 nM) :: -0.42

input: Quick one: percent inhibition of viability of Nc1ncn([C@H]2C[C@H](O)[C@@H](CO)O2)c(=O)n1 [Decitabine] (max concentration tested 10000 nM) ?
output: 18.9

input: Same question for O=c1[nH]cc(F)c(=O)[nH]1 [Fluorouracil] (max concentration tested 10000 nM) please.
output: 4.56

input: Same question for CNC(=O)c1cccc(-c2ccc3c(N4CCOC[C@@H]4C)nc(N4CCOC[C@@H]4C)nc3n2)c1 [AZD2014] (max concentration tested 10000 nM) please.
output: -44.5

====

Listing of recorded percent inhibition of viability by entry.
System: normal primary NK cells, pool 2 (3 donors) (IL-2 2.5 ng/mL)
Assay: percent inhibition of viability; higher = more inhibition
Conditions: 72 h; 100 nM
Numbers only here, please. The scale is %.

1) CC(C)C[C@H](NC(=O)[C@H](Cc1ccccc1)NC(=O)c1cnccn1)B(O)O [Bortezomib] (max concentration tested 1000 nM) :: 95.3
2) Nc1ncn([C@@H]2O[C@H](CO)[C@@H](O)[C@H]2O)c(=O)n1 [Azacitidine] (max concentration tested 10000 nM) :: -5.14

Now for another entry.
input: Quick one: percent inhibition of viability of COc1cc(N2CCC(N3CCN(C)CC3)CC2)ccc1Nc1ncnc(Nc2ccccc2S(=O)(=O)C(C)C)n1 [ASP3026] (max concentration tested 10000 nM) ?
output: 3.32

====

Test system: normal primary NK cells, pool 2 (3 donors) (IL-2 2.5 ng/mL)
Experiment: percent inhibition of viability; higher = more inhibition
Details: 72 h; 100 nM
parameterMeasured: percent inhibition of viability (%)
Numbers only here, please. The scale is %.

Worked set:
1) Cc1ccccc1C(C(=O)NC1CCCCC1)N(C(=O)Cn1ccnc1C)c1cccc(F)c1 (stereo not drawn) [AGI-5198] (max concentration tested 10000 nM) :: 3.47
2) CCCS(=O)(=O)Nc1ccc(F)c(C(=O)c2c[nH]c3ncc(-c4ccc(Cl)cc4)cc23)c1F [Vemurafenib] (max concentration tested 10000 nM) :: 6.03

Now for another entry.
input: Quick one: percent inhibition of viability of Nc1nc2[nH]cc(CCc3ccc(C(=O)N[C@@H](CCC(=O)O)C(=O)O)cc3)c2c(=O)[nH]1 [Pemetrexed] (max concentration tested 10000 nM) ?
output: -3.95

====

System: KAI3 (IL-2 2.5 ng/mL)
Assay: percent inhibition of viability; higher = more inhibition
Details: 72 h; 1 nM
parameterMeasured: percent inhibition of viability (%)
Numbers only here, please. The scale is %.

Worked set:
1. CNC(=O)c1cc(Oc2ccc(NC(=O)Nc3ccc(Cl)c(C(F)(F)F)c3)c(F)c2)ccn1 [Regorafenib] (max concentration tested 10000 nM) :: -0.04
2. Nc1ncn([C@H]2C[C@H](O)[C@@H](CO)O2)c(=O)n1 [Decitabine] (max concentration tested 10000 nM) :: 10.1
3. c1ccc2c(CCNc3ccc(Nc4ccncc4)cc3)c[nH]c2c1 [Serdemetan] (max concentration tested 10000 nM) :: 1.77
4. CC[C@@H]1C(=O)N(C)c2cnc(Nc3ccc(C(=O)NC4CCN(C)CC4)cc3OC)nc2N1C1CCCC1 [BI 2536] (max concentration tested 1000 nM) :: 1.84
5. CC[C@H](Nc1ncnc2[nH]cnc12)c1nc2cccc(F)c2c(=O)n1-c1ccccc1 [Idelalisib] (max concentration tested 10000 nM) :: -6.15

input: Quick one: percent inhibition of viability of CNC(=O)CN1CCC(Oc2cc3c(Nc4cccc(Cl)c4F)ncnc3cc2OC)CC1 [Sapitinib] (max concentration tested 1000 nM) ?
output: -1.42

input: Same question for CCn1c(=O)c(-c2cc[nH]n2)cc2c(C)nc(N)nc21 [Voxtalisib] (max concentration tested 10000 nM) please.
output: -4.78

input: Same question for CNC(=O)c1ccc(N2C(=S)N(c3cnc(C#N)c(C(F)(F)F)c3)C(=O)C23CCC3)cc1F [ARN 509] (max concentration tested 10000 nM) please.
output: -2.56

input: Same question for C=CCNC1=C2C[C@@H](C)C[C@H](OC)[C@H](O)[C@@H](C)/C=C(\C)[C@H](OC(N)=O)[C@@H](OC)/C=C\C=C(/C)C(=O)NC(=CC1=O)C2=O [Tanespimycin] (max concentration tested 10000 nM) please.
output: 0.55

input: Same question for CC(C)(C)c1cnc(CSc2cnc(NC(=O)C3CCNCC3)s2)o1 [SNS-032] (max concentration tested 10000 nM) please.
output: -8.15

input: Same question for COc1cc2nccc(Oc3ccc(NC(=O)Nc4cc(C)on4)c(Cl)c3)c2cc1OC [Tivozanib] (max concentration tested 10000 nM) please.
output: 0.42

input: Same question for N#Cc1ccc(C(c2ccc(C#N)cc2)n2cncn2)cc1 [Letrozole] (max concentration tested 10000 nM) please.
output: -6.48

input: Same question for Clc1ccc(C(c2ccccc2Cl)C(Cl)Cl)cc1 (stereo not drawn) [Mitotane] (max concentration tested 10000 nM) please.
output: -6.14

# credit: the supplement of paper PMC5908809
